# Tested on: SW-620 cell line
# ASSAY_EXPLANATION: MTT cell viability assay, SW-620
# SETTINGS: Homo sapiens, SW-620, 24 h, SW-620, MTT, 24 h
PROPERTY_NAME: IC50 (µM)
Only the number, expressed in µM, is required.

O=C/C=C/c1ccccc1 [cinnamaldehyde] | 92

API: the following record is the query input.
Q: Data request, read-out IC50, for C=CCc1ccc(O)c(OC)c1 [eugenol]
Ans: 918

====

# System: NCM-460 cell line
# ASSAY_EXPLANATION: cells
# SETTINGS: NCM-460, MTT, 24 h
PROPERTY_NAME: IC50 (µM)
Lab book: enter the figure in µM, no units written.

Q: Param item = O=C/C=C/c1ccccc1 ; retrieve measured IC50.
Ans: 218
